- Test system: U2OS
- Test Description: cell viability relative to DMSO; higher = less toxic
- Particulars: 72 h; 10000 nM
Rule: cell viability below 90% gives Met. Equal to or above 90% gives Not met.

# Compound, Discrete Label
data = [
    ("CC[C@]12CCCN3CCc4c(n(c5ccccc45)[C@@](O)(C(=O)OC)C1)[C@@H]32", "Not met"),
]

Please turn your attention to the following entry.
Determine whether this compound shows cell viability lower than 90% (ties excluded): `Cn1cc(C(=O)c2cccc3ccccc23)cc1C(=O)O`
Not met

###

- Test system: Calu-3
- Test Description: cell viability relative to DMSO; higher = less toxic
- Particulars: 72 h; 10 nM
Assay Metric: cell viability (%)
Give bare numbers, in %.

Some entries whose results are on file:
# Compound, Measured On, Assay Metric, Experimental Result
rows = [
    ("CCCCCCCCCCCCCCCCNc1ccc(C(=O)O)cc1", "Calu-3", "cell viability", 101),
    ("COc1cc(Br)c(Nc2nc(-c3c(C)nc4ncccn34)cs2)c(Br)c1", "Calu-3", "cell viability", 102),
    ("COc1ccc(NS(=O)(=O)c2sc3ccc(Cl)cc3c2C)cc1N1CCNCC1", "Calu-3", "cell viability", 105),
    ("CN(C(=O)/C=C/c1ccoc1)[C@@H]1CC[C@@]2(O)[C@H]3Cc4ccc(O)c5c4[C@@]2(CCN3CC2CC2)[C@H]1O5", "Calu-3", "cell viability", 103),
    ("Cc1[nH]c2ccc(O)cc2c1CCN [2-methyl-5-hydroxytryptamine]", "Calu-3", "cell viability", 109),
    ("CC(C)NC[C@@H](O)c1ccc(O)c(O)c1 (racemic)", "Calu-3", "cell viability", 104),
    ("COc1cc(O)c(C(=O)c2ccccc2)cc1S(=O)(=O)O", "Calu-3", "cell viability", 106),
    ("OCc1ccc(O[C@@H]2O[C@H](CO)[C@@H](O)[C@H](O)[C@H]2O)cc1", "Calu-3", "cell viability", 94.1),
]

Consider the following items and state reported cell viability for each.
1. O=C1Nc2ccccc2C12OCC1(CO2)COC2(OC1)C(=O)Nc1ccccc12 (centres undefined)
2. COc1cc2ncnc(Nc3ccc(O)c(Br)c3)c2cc1OC
3. O=c1[nH]c(=O)n([C@H]2C[C@H](O)[C@@H](CO)O2)cc1I
4. N=C(N)NCCC[C@@H](NC(=O)[C@@H]1CCCN1C(=O)[C@@H]1CSSCCC(=O)N[C@@H](Cc2ccc(O)cc2)C(=O)N[C@@H](Cc2ccccc2)C(=O)N[C@@H](CCC(N)=O)C(=O)N[C@@H](CC(N)=O)C(=O)N1)C(=O)NCC(N)=O [desmopressin-acetate]

92.1
103
96.6
92.7

Consider the following items and state reported cell viability for each.
1. CCn1nc(C2CCN(C(=O)CCO)CC2)nc1-c1cnc(N)c(-c2nnc(C(C)(C)C)o2)n1
2. Clc1ccc(C(Cn2ccnc2)OCc2ccsc2Cl)c(Cl)c1 (centres undefined)

1. 96.3
2. 92.8
